These measurements were taken from paper PMC2940062.

Assay: Docetaxel pharmacokinetics in plasma, day 1 of cycle 1
Assay type: in vivo
Details: human, intravenous
Observable: half-life (h)

INSERT INTO assay_data (compound, uom, recorded_result) VALUES
  ('CC(=O)O[C@@]12CO[C@@H]1C[C@H](O)[C@@]1(C)C(=O)[C@H](O)C3=C(C)[C@@H](OC(=O)[C@H](O)[C@@H](NC(=O)OC(C)(C)C)c4ccccc4)C[C@@](O)([C@@H](OC(=O)c4ccccc4)[C@H]21)C3(C)C [Docetaxel, docetaxel]', 'h', 9.4);

====

Assay: Docetaxel pharmacokinetics in plasma, day 1 of cycle 1
Type: in vivo
Conditions: human, intravenous, 75 mg/m2, Cmax, Day 1, everolimus 5 mg/day, docetaxel 75 mg/m^2, n=3, mean (SD)
Observable: Cmax (nM)

INSERT INTO measurements (compound, recorded_result) VALUES
  ('CC(=O)O[C@@]12CO[C@@H]1C[C@H](O)[C@@]1(C)C(=O)[C@H](O)C3=C(C)[C@@H](OC(=O)[C@H](O)[C@@H](NC(=O)OC(C)(C)C)c4ccccc4)C[C@@](O)([C@@H](OC(=O)c4ccccc4)[C@H]21)C3(C)C [Docetaxel, docetaxel]', 1610);

====

Experiment: Everolimus pharmacokinetics in blood, cycle 1
Assay type: in vivo, human
Conditions: human, whole blood, oral, 75 mg/m2, AUC0-24, Day 8; everolimus 5 mg/day, docetaxel 75 mg/m^2; n=6; mean (SD)
Observable: AUC(0-t) (ng·h/mL)

INSERT INTO assay_data (compound, recorded_result) VALUES
  ('CO[C@H]1C[C@@H]2CC[C@@H](C)[C@@](O)(O2)C(=O)C(=O)N2CCCC[C@H]2C(=O)O[C@H]([C@H](C)C[C@@H]2CC[C@@H](OCCO)[C@H](OC)C2)CC(=O)[C@H](C)/C=C(\C)[C@@H](O)[C@@H](OC)C(=O)[C@H](C)C[C@H](C)/C=C/C=C/C=C/1C [Everolimus, everolimus]', 336);

====

Assay: Everolimus pharmacokinetics in blood, cycle 1
Assay type: in vivo, human
Conditions: human, whole blood, oral, 60 mg/m2, AUC0-24, Day 15; everolimus 5 mg/day, docetaxel 60 mg/m^2; n=3; mean (SD)
Observable: AUC(0-t) (ng·h/mL)

INSERT INTO measurements (smiles_repr, uom, recorded_result) VALUES
  ('CO[C@H]1C[C@@H]2CC[C@@H](C)[C@@](O)(O2)C(=O)C(=O)N2CCCC[C@H]2C(=O)O[C@H]([C@H](C)C[C@@H]2CC[C@@H](OCCO)[C@H](OC)C2)CC(=O)[C@H](C)/C=C(\C)[C@@H](O)[C@@H](OC)C(=O)[C@H](C)C[C@H](C)/C=C/C=C/C=C/1C', 'ng·h/mL', 350);

====

Experiment: Docetaxel pharmacokinetics in plasma, day 1 of cycle 1
Type: in vivo
Settings: human, intravenous, 60 mg/m2, Cmax, Day 1, everolimus 5 mg/day, docetaxel 60 mg/m^2, n=1
Observable: Cmax (nM)

INSERT INTO assay_data (smiles_repr, recorded_result) VALUES
  ('CC(=O)O[C@@]12CO[C@@H]1C[C@H](O)[C@@]1(C)C(=O)[C@H](O)C3=C(C)[C@@H](OC(=O)[C@H](O)[C@@H](NC(=O)OC(C)(C)C)c4ccccc4)C[C@@](O)([C@@H](OC(=O)c4ccccc4)[C@H]21)C3(C)C', 1010);

====

Assay: Everolimus pharmacokinetics in blood, cycle 1
Assay type: in vivo, human
Details: human, whole blood, oral, 60 mg/m2, AUC0-24, Day 1; everolimus 5 mg/day, docetaxel 60 mg/m^2; n=3; mean (SD)
Observable: AUC(0-t) (ng·h/mL)

INSERT INTO measurements (smiles_repr, observable, recorded_result) VALUES
  ('CO[C@H]1C[C@@H]2CC[C@@H](C)[C@@](O)(O2)C(=O)C(=O)N2CCCC[C@H]2C(=O)O[C@H]([C@H](C)C[C@@H]2CC[C@@H](OCCO)[C@H](OC)C2)CC(=O)[C@H](C)/C=C(\C)[C@@H](O)[C@@H](OC)C(=O)[C@H](C)C[C@H](C)/C=C/C=C/C=C/1C', 'AUC(0-t)', 244);

====

Experiment: Everolimus pharmacokinetics in blood, cycle 1
Type: in vivo, human
Conditions: human, whole blood, oral, 75 mg/m2, AUC0-24, Day 15; everolimus 5 mg/day, docetaxel 75 mg/m^2; n=6; mean (SD)
Observable: AUC(0-t)

INSERT INTO results (smiles_repr, observable, recorded_result) VALUES
  ('CO[C@H]1C[C@@H]2CC[C@@H](C)[C@@](O)(O2)C(=O)C(=O)N2CCCC[C@H]2C(=O)O[C@H]([C@H](C)C[C@@H]2CC[C@@H](OCCO)[C@H](OC)C2)CC(=O)[C@H](C)/C=C(\C)[C@@H](O)[C@@H](OC)C(=O)[C@H](C)C[C@H](C)/C=C/C=C/C=C/1C', 'AUC(0-t)', '369 ng·h/mL');

====

Assay: Everolimus pharmacokinetics in blood, cycle 1
Format: in vivo, human
Conditions: human, whole blood, oral, 60 mg/m2, Cmax, Day 15; everolimus 5 mg/day, docetaxel 60 mg/m^2; n=3; mean (SD)
Observable: Cmax (ng/mL)

INSERT INTO results (molecule, uom, recorded_result) VALUES
  ('CO[C@H]1C[C@@H]2CC[C@@H](C)[C@@](O)(O2)C(=O)C(=O)N2CCCC[C@H]2C(=O)O[C@H]([C@H](C)C[C@@H]2CC[C@@H](OCCO)[C@H](OC)C2)CC(=O)[C@H](C)/C=C(\C)[C@@H](O)[C@@H](OC)C(=O)[C@H](C)C[C@H](C)/C=C/C=C/C=C/1C [Everolimus, everolimus]', 'ng/mL', 51);

====

Assay: Everolimus pharmacokinetics in blood, cycle 1
Type: in vivo, human
Details: human, whole blood, oral, 60 mg/m2, AUC0-24, Day 8; everolimus 5 mg/day, docetaxel 60 mg/m^2; n=3; mean (SD)
Observable: AUC(0-t) (ng·h/mL)

INSERT INTO assay_data (smiles_repr, observable, recorded_result) VALUES
  ('CO[C@H]1C[C@@H]2CC[C@@H](C)[C@@](O)(O2)C(=O)C(=O)N2CCCC[C@H]2C(=O)O[C@H]([C@H](C)C[C@@H]2CC[C@@H](OCCO)[C@H](OC)C2)CC(=O)[C@H](C)/C=C(\C)[C@@H](O)[C@@H](OC)C(=O)[C@H](C)C[C@H](C)/C=C/C=C/C=C/1C', 'AUC(0-t)', 329);

====

Test: Docetaxel pharmacokinetics in plasma, day 1 of cycle 1
Assay type: in vivo
Settings: human, intravenous, 75 mg/m2
Observable: half-life (h)

INSERT INTO results (molecule, recorded_result) VALUES
  ('CC(=O)O[C@@]12CO[C@@H]1C[C@H](O)[C@@]1(C)C(=O)[C@H](O)C3=C(C)[C@@H](OC(=O)[C@H](O)[C@@H](NC(=O)OC(C)(C)C)c4ccccc4)C[C@@](O)([C@@H](OC(=O)c4ccccc4)[C@H]21)C3(C)C [Docetaxel, docetaxel]', 8.74);
